Experiment: The drug is tested on Z-002 corresponding to rabbit gut metagenome with ENA study accession number: PRJEB37062 and ENA sample accession number: ERS12561802 for biotransformation under anaerobic condition. The drug concentrations were measured over 9 timepoints collected between 0 and 24 hours of incubation by liquid-chromatography-coupled mass spectrometry (LC–MS); further: call rule not given here
Details: 2 µM

{"molecule": "CC(C)NCC(O)c1ccc(NS(C)(=O)=O)cc1 (stereo not drawn)", "Bacterial Biotransformation": "Compound NOT metabolized"}
{"molecule": "COc1ccccc1OCC(O)COC(N)=O (stereo not drawn)", "Bacterial Biotransformation": "Compound NOT metabolized"}
{"molecule": "CC(C)N(CCC(C(N)=O)(c1ccccc1)c1ccccn1)C(C)C.O=P(O)(O)O (stereo not drawn) [DISOPYRAMIDE PHOSPHATE]", "Bacterial Biotransformation": "Compound NOT metabolized"}
{"molecule": "CCCCCCOC(=O)/N=C(/N)c1ccc(NCc2nc3cc(C(=O)N(CCC(=O)OCC)c4ccccn4)ccc3n2C)cc1.CS(=O)(=O)O [DABIGATRAN ETEXILATE MESYLATE]", "Bacterial Biotransformation": "Compound NOT metabolized"}
{"molecule": "O=C1[C@H](CC[C@H](O)c2ccc(F)cc2)[C@@H](c2ccc(O)cc2)N1c1ccc(F)cc1", "Bacterial Biotransformation": "Compound NOT metabolized"}
{"molecule": "Nc1nc2ccc(OC(F)(F)F)cc2s1", "Bacterial Biotransformation": "Compound metabolized"}
{"molecule": "COc1ccc2c(c1OC)C(=O)O[C@@H]2[C@H]1c2c(cc3c(c2OC)OCO3)CCN1C", "Bacterial Biotransformation": "Compound metabolized"}
{"molecule": "NC(CO)(CO)CO.O=C(c1ccccc1)c1ccc2n1CCC2C(=O)O (stereo not drawn)", "Bacterial Biotransformation": "Compound metabolized"}

* * *

Settings: human gut metagenome, 24 h, 2 µM

{"molecule": "CN1CCN(C2=Nc3cc(Cl)ccc3Nc3ccccc32)CC1", "Bacterial Biotransformation": "Compound metabolized"}
{"molecule": "CCN(CC)CCOC(=O)C(Cc1cccc2ccccc12)CC1CCCO1.O=C(O)C(=O)O (stereo not drawn) [NAFRONYL OXALATE]", "Bacterial Biotransformation": "Compound metabolized"}
{"molecule": "NC(=O)N1c2ccccc2CC(=O)c2ccccc21 [OXCARBAZEPINE]", "Bacterial Biotransformation": "Compound NOT metabolized"}
{"molecule": "Cc1ccccc1N1C(=O)c2cc(S(N)(=O)=O)c(Cl)cc2NC1C (stereo not drawn)", "Bacterial Biotransformation": "Compound NOT metabolized"}
{"molecule": "Cc1ccc(S(=O)(=O)NC(=O)NN2CCCCCC2)cc1 [TOLAZAMIDE]", "Bacterial Biotransformation": "Compound metabolized"}
{"molecule": "COc1ccccc1OCC(O)COC(N)=O (stereo not drawn)", "Bacterial Biotransformation": "Compound NOT metabolized"}
{"molecule": "CCOc1ccc(NC(C)=O)cc1", "Bacterial Biotransformation": "Compound NOT metabolized"}
{"molecule": "O=C(O)CCc1nc(-c2ccccc2)c(-c2ccccc2)o1", "Bacterial Biotransformation": "Compound metabolized"}
{"molecule": "Cc1ccc(-c2cc(C(F)(F)F)nn2-c2ccc(S(N)(=O)=O)cc2)cc1", "Bacterial Biotransformation": "Compound metabolized"}
{"molecule": "CNC(=C[N+](=O)[O-])NCCSCc1ccc(CN(C)C)o1", "Bacterial Biotransformation": "Compound NOT metabolized"}
{"molecule": "OC(CCN1CCCCC1)(c1ccccc1)C1CC2C=CC1C2 (stereo not drawn)", "Bacterial Biotransformation": "Compound NOT metabolized"}
{"molecule": "CCC1(c2ccc(N)cc2)CCC(=O)NC1=O (stereo not drawn) [AMINOGLUTETHIMIDE]", "Bacterial Biotransformation": "Compound NOT metabolized"}
{"molecule": "Cc1ccc(/C(=C\\CN2CCCC2)c2ccccn2)cc1", "Bacterial Biotransformation": "Compound NOT metabolized"}
{"molecule": "CCCc1nc(C(C)(C)O)c(C(=O)OCc2oc(=O)oc2C)n1Cc1ccc(-c2ccccc2-c2nnn[nH]2)cc1", "Bacterial Biotransformation": "Compound metabolized"}
{"molecule": "CC(C)c1nc(CN(C)C(=O)N[C@H](C(=O)N[C@@H](Cc2ccccc2)C[C@H](O)[C@H](Cc2ccccc2)NC(=O)OCc2cncs2)C(C)C)cs1", "Bacterial Biotransformation": "Compound metabolized"}
{"molecule": "COCCc1ccc(OCC(O)CNC(C)C)cc1.COCCc1ccc(OCC(O)CNC(C)C)cc1.O=C(O)C(O)C(O)C(=O)O (stereo not drawn) [METOPROLOL TARTRATE]", "Bacterial Biotransformation": "Compound NOT metabolized"}
{"molecule": "CN1C(C(=O)Nc2ccccn2)=C(O)c2sccc2S1(=O)=O", "Bacterial Biotransformation": "Compound NOT metabolized"}
{"molecule": "CCN1CCCC1CNC(=O)c1cc(S(N)(=O)=O)ccc1OC (stereo not drawn) [SULPIRIDE]", "Bacterial Biotransformation": "Compound NOT metabolized"}
